Origin of the recorded values: paper PMC8789040

Molecular target: LS4 (Archaeoglobus fulgidus scaffold, laboratory-evolved) (UniProt O29494)
Assay: SPR
Conditions: SPR: 10 mM HEPES pH 7.4, 150 mM NaCl, 1 mM MgCl2, 0.05% P20, 0.25 mM TCEP, 0.1 mg/ml BSA, 25 ug/ml yeast tRNA, 25 C; EMSA: 10 mM HEPES-KOH pH 7.5, 140 mM KCl …
READOUT KIND: Kd (nM)
Report the figure in nM without appending any unit label.

Before answering, review these 2 worked examples.
GGCAGAGAAAGGCCAUACAAUCAUUGGCCUUGUGAGGCCGUGUGUCUUCCAGUGGCAUCGACGAAAGACACAGAACG [LS4-1] ... 0.0736
GGAUCGCGUGAUCCGAAAGGUGACGAUCCAAAUCGACGAAAGACACAGAACG [Box C/D Kt (Kt_SPR)] ... 599

Please find the next sequence below.
Exercise: Tell me the measured Kd of GGUGGCAUAGAAAGGCGAAAGCCUUGUGUGGCCAUCAAAUCGACGAAAGACACAGAACG [CS1-M2] , please.
Key: 2.21

* * *

Target: LS4 (Archaeoglobus fulgidus scaffold, laboratory-evolved)
Assay: EMSA
Conditions: titration regime; SPR: 10 mM HEPES pH 7.4, 150 mM NaCl, 1 mM MgCl2, 0.05% P20, 0.25 mM TCEP, 0.1 mg/ml BSA, 25 ug/ml yeast tRNA, 25 C; EMSA: 10 mM HEPES-KOH pH 7.5, 140 mM KCl …
pKd: −log10 of the molar value.
READOUT KIND: pKd

Exercise: Dear colleague, I am looking for the recorded pKd of the following sequence: AGAGGCAGAGAAAGGGAAACCUUGUGAGGCCUCU [Cy5-CS1]
Key: > 9.30

* * *

Biological target: LS12 E34S (Archaeoglobus fulgidus scaffold, laboratory-evolved)
Sequence: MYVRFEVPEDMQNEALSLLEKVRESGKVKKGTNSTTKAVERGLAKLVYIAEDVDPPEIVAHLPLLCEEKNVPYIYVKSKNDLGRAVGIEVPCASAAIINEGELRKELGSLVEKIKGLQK
Experiment: SPR
Conditions: SPR: 10 mM HEPES pH 7.4, 150 mM NaCl, 1 mM MgCl2, 0.05% P20, 0.25 mM TCEP, 0.1 mg/ml BSA, 25 ug/ml yeast tRNA, 25 C; EMSA: 10 mM HEPES-KOH pH 7.5, 140 mM KCl …
Reported pKd by item:
Keep in mind that pKd stands for -log10 of concentration in molar terms.

GGAUGCAGAGAACGAAAGUUCCAUUACGCAUCCAAAUCGACGAAAGACACAGAACG [CS2-M3] ... 8.22
GGAUGCAGAGAACGAAAGUUCCAUGACGCAUCCAAAUCGACGAAAGACACAGAACG [CS2] ... 11.14
GGCAGAGAAAGGCCAUACAAUCAUUGGCUUUUCCAUGACGCCAGUUCCAGUGGCAUCGACGAAAGACACAGAACG [LS12-1] ... 10.98

Now consider the entry below.
Exercise: Return reported pKd; argument: GGAUCGCGUGAUCCGAAAGGUGACGAUCCAAAUCGACGAAAGACACAGAACG [Box C/D Kt (Kt_SPR)]
Key: 7.84
